- SETUP_CONDITIONS: 308.15 K; 101.33 kPa; Liquid; Falling or rolling sphere viscometry
REPORTED_METRIC: viscosity (mPa·s)

CC(=O)[O-].C[NH+]1CCCC1=O [N-methyl-2-oxopyrrolidinium acetate]    2.144
CCCCCC(=O)[O-].C[NH+]1CCCC1=O [N-methyl-2-oxopyrrolidinium hexanoate]    3.543
CCC(=O)[O-].C[NH+]1CCCC1=O [N-methyl-2-oxopyrrolidinium propionate]    2.28
CCCC(=O)[O-].C[NH+]1CCCC1=O [N-methyl-2-oxopyrrolidinium butanoate]    2.809

a: CCCCC(=O)[O-].C[NH+]1CCCC1=O [N-methyl-2-oxopyrrolidinium pentanoate]
b: C[NH+]1CCCC1=O.O=C[O-] [N-methyl-2-oxopyrrolidinium formate]
Ask: Please tell me which of the two, a or b , has the higher reported viscosity value. # reply format: chosen label
Result: a
(a: 3.093 mPa·s, b: 1.85 mPa·s)

// data source = the NIST ThermoML archive (doi:10.1016/j.fluid.2014.11.024)
